Substrate: O=[N+]([O-])c1ccc(O[C@@H]2O[C@H](CO)[C@@H](O)[C@H](O)[C@H]2O)cc1
assay-details: purified protein
settings: pH 10.0, glycine-NaOH, 30 °C
measurement-kind: Vmax

Completed entries (count: 4):
INSERT INTO results (protein, measurement_kind, recorded_measurement) VALUES
  ('Bgl1D (uncultured microorganism) (protein) MSLFFTFNPLEIVPTRVIGVPNHYQNYSWCNFQNGDYPFIDGIDINLIYQVKVGIPIVVRLETVATIFNILIPHLSESERDYIKRVYDYLRLDGRTSQSSYFFGPVDSQKIGLILRKYFFEWSSQMTYECLSGKVRGIAAPDKLVSEMNEIYNELMKVFNGDVSNIVNIGVN', 'Vmax', '20.1 µmol/min/mg'),
  ('Bgl1D (uncultured microorganism; D44E/F68L/I70M/R91G/Y37H) (protein) MSLFFTFNPLEIVPTRVIGVPNHYQNYSWCNFQNGDHPFIDGIEINLIYQVKVGIPIVVRLETVATILNMLIPHLSESERDYIKRVYDYLGLDGRTSQSSYFFGPVDSQKIGLILRKYFFEWSSQMTYECLSGKVRGIAAPDKLVSEMNEIYNELMKVFNGDVSNIVNIGVN', 'Vmax', '154 µmol/min/mg'),
  ('Bgl1D (uncultured microorganism; F68L/I70M) (protein) MSLFFTFNPLEIVPTRVIGVPNHYQNYSWCNFQNGDYPFIDGIDINLIYQVKVGIPIVVRLETVATILNMLIPHLSESERDYIKRVYDYLRLDGRTSQSSYFFGPVDSQKIGLILRKYFFEWSSQMTYECLSGKVRGIAAPDKLVSEMNEIYNELMKVFNGDVSNIVNIGVN', 'Vmax', '25.8 µmol/min/mg'),
  ('Bgl1D (uncultured microorganism; E154G/I57K/S28P) (protein) MSLFFTFNPLEIVPTRVIGVPNHYQNYPWCNFQNGDYPFIDGIDINLIYQVKVGIPKVVRLETVATIFNILIPHLSESERDYIKRVYDYLRLDGRTSQSSYFFGPVDSQKIGLILRKYFFEWSSQMTYECLSGKVRGIAAPDKLVSEMNEIYNGLMKVFNGDVSNIVNIGVN', 'Vmax', '52.9 µmol/min/mg');

Requested read-out: Vmax. Entry: Bgl1D (uncultured microorganism; L115N/S28T) (protein) MSLFFTFNPLEIVPTRVIGVPNHYQNYTWCNFQNGDYPFIDGIDINLIYQVKVGIPIVVRLETVATIFNILIPHLSESERDYIKRVYDYLRLDGRTSQSSYFFGPVDSQKIGLINRKYFFEWSSQMTYECLSGKVRGIAAPDKLVSEMNEIYNELMKVFNGDVSNIVNIGVN 26.3 µmol/min/mg
